Each recorded value in this set is attributed to PubChem BioAssay.

Provide the recorded inhibition for the entries that follow.
Experiment: growth suppression of yeast trafficking mutant, preliminary HTS, modulators of trafficking downstream of Golgi apparatus project, 1536-format plate, OD 615 nm (AID 637); note: test concentration not given here
Conditions: yeast transport mutant growth, absorbance 615 nm, 18 h; active compounds read high
Answers are plain numbers, in %.

CCOC(=O)c1cn(CC)c2cc(N3CCOCC3)c(F)cc2c1=O    -0.63
Cc1c(C(=O)NCc2ccccc2)oc2c1C(=O)CCC2    5.67
COc1ccccc1N(CC(=O)NCc1ccccc1)S(C)(=O)=O    -7.33
O=C(Cc1c(O)c2ccccc2[nH]c1=O)NCc1ccc(F)cc1    10
CC(=O)N(C(C)=O)c1cccc2c(N(C(C)=O)C(C)=O)cccc12    -6

Record inhibition for all entries; do not skip any.
1. O=C(NCC(c1cccnc1)N1CCN(c2ccc(F)cc2)CC1)c1ccc(F)cc1 (stereo unspecified)
2. O=C(OCc1nnc(-c2ccc(Cl)cc2)o1)c1ccc(=O)n(Cc2ccccc2)n1
3. CC(=O)N1CCc2cc(Br)cc(S(=O)(=O)NCCCN3CCCC(C)C3)c21 (stereo unspecified)
4. CC(C)(C)NC(=O)Cn1nnnc1-c1nonc1N
5. Cc1nnc(SCC(=O)NCCN2C(=O)CSC2=O)s1
6. CC(C)OC(=O)CSc1nnc(-c2ccco2)n1N

1: 8.25; 2: -9; 3: -3.93; 4: 5.25; 5: 0.63; 6: -5.33
